# PROTOCOL_DESCRIPTION: Toxicity against C57BL/6 mouse assessed as proportion of animal survival at 500 mg/kg, ig and measured on day 7
# Type: organism-based
# ASSAY_CONDITIONS: in vivo, po, time 7 day
ENDPOINT_NAME: survival at 168 h (%)
Hi! Could you send only the number? It should be in %, unit omitted.

query: # survival at 168 h lookup, item "COC(=O)N/N=C/c1c(-c2nc(C)c(F)c(NCCN3CCCC3)n2)[nH]c2ccc(OC)cc12"
result: 16.7

---

# PROTOCOL_DESCRIPTION: Relative Therapeutic index, ratio of IC50 for cytotoxicity against mouse 3T3-L1 cells to EC50 for lipid-lowering activity in differentiated mouse 3T3-L1 cells
# Type: toxicity, cell-based
# ASSAY_CONDITIONS: read-out: Ratio IC50/EC50
Item-by-item account of selectivity ratio
Please state the value as a number alone, without comment.

Recorded results for 4 molecules are shown here.
CN(C)CCNc1ccnc(-c2[nH]c3ccc(-c4ccccc4)cc3c2C=O)n1; 2
COc1ccc2[nH]c(-c3nc(C)cc(NCCN4CCCC4)n3)c(C=O)c2c1; 121
COc1ccc2[nH]c(-c3nc(C)c(Cl)c(NCCN4CCCC4)n3)c(C=O)c2c1; 90
Cc1cc(NCCN2CCCC2)nc(-c2[nH]c3cc(Br)ccc3c2C=O)n1; 31

Lab note: next molecule to report on.
query: # selectivity ratio lookup, item "COc1ccc2c(C=O)c(-c3nccc(NCCN(C)C)n3)[nH]c2c1"
result: 244

---

# PROTOCOL_DESCRIPTION: Relative Therapeutic index, ratio of IC50 for cytotoxicity against mouse 3T3-L1 cells to EC50 for lipid-lowering activity in differentiated mouse 3T3-L1 cells
# Format: toxicity, cell-based
# ASSAY_CONDITIONS: read-out: Ratio IC50/EC50
Is selectivity ratio at least 40? Then satisfied. If not, not satisfied.

Cc1cnc(-c2[nH]c3cc(Br)ccc3c2C=O)nc1NCCN(C)C; satisfied
O=Cc1c(-c2nccc(NCCN3CCCC3)n2)[nH]c2ccc(Br)cc12; satisfied
CC1=C(O)C(=O)C=C2C1=CC=C1[C@@]2(C)CC[C@@]2(C)[C@@H]3C[C@](C)(C(=O)O)CC[C@]3(C)CC[C@]12C; not satisfied

query: Kindly determine if selectivity ratio recorded for "COc1ccc2[nH]c(-c3ncc(C)c(NCCN(C)C)n3)c(C=O)c2c1" is above or exactly 40.
result: not satisfied

query: Queued: "COc1ccc2[nH]c(-c3nc(C)c(C)c(NCCN4CCCC4)n3)c(C=O)c2c1"
result: not satisfied

query: Queued: "Cc1nc(-c2[nH]c3ccccc3c2C=O)nc(NCCN(C)C)c1F"
result: satisfied

---

# PROTOCOL_DESCRIPTION: Relative Therapeutic index, ratio of IC50 for cytotoxicity against mouse 3T3-L1 cells to EC50 for lipid-lowering activity in differentiated mouse 3T3-L1 cells
# Type: toxicity, cell-based
# ASSAY_CONDITIONS: read-out: Ratio IC50/EC50
Item-by-item account of selectivity ratio
Please state the value as a number alone, without comment.

Recorded results for 3 molecules are shown here.
Cc1nc(-c2[nH]c3ccc(O)cc3c2C=O)nc(NCCN2CCCC2)c1Cl; 375
CN(C)CCNc1ccnc(-c2[nH]c3ccccc3c2C=O)c1; 89
COc1ccc2c(C=O)c(-c3ncc(C)c(NCCN(C)C)n3)[nH]c2c1; 297

query: # selectivity ratio lookup, item "Cc1cc(NCCN(C)C)nc(-c2[nH]c3ccc(F)cc3c2C=O)n1"
result: 43

Reference source for all entries: ChEMBL document CHEMBL5614407
